tested on: morningglory; experiment: Test C pre-/postemergence herbicide test; format: in vivo, Ipomoea coccinea; parameters: key: 0 = no effect, 100 = complete control; conditions: postemergence; 62 g ai/ha; scale 0 to 100
MEASURE_NAME: Plant response rating, Morningglory

INSERT INTO assay_data (structure_as_smiles, measure_name, measured_number) VALUES
  ('C=Cn1nc(C(C)(C)C)cc1C(=O)Nc1cccc(C(C)=NO)c1', 'Plant response rating, Morningglory', 10),
  ('CCNC(=O)c1cc(NC(=O)c2cc(C(C)(C)C)nn2CC)ccc1F', 'Plant response rating, Morningglory', 10),
  ('CCCCOC(=O)c1cccc(NC(=O)c2cc(C(C)(C)C)nn2CC)c1', 'Plant response rating, Morningglory', 10),
  ('C=CCNC(=O)c1cccc(NC(=O)c2cc(C(C)(C)C)nn2CC)c1', 'Plant response rating, Morningglory', 60);

Values compiled from patent US20060069132A1.
